- Method Description: Half life in CD1 mouse at 5 mg/kg, iv
- Format: ADME, organism-based
- Design: dose 5 mg/kg, route intravenous
- Details: in vivo
# key: entry, value: half-life
Provide only the numeric value, understood in h.

{"Test Smiles": "CC(C)(C)c1cnc(CSc2cnc(N[C@H]3CC[C@H](N)CC3)s2)o1", "Numeric Readout": 1.9}

Kindly consider the entry below.
Lookup result for CC(C)(C)c1cnc(CSc2cnc(NC(=O)C3CCNCC3)s2)o1 ; measured half-life: 0.6

----------
- Method Description: Clearance in CD1 mouse at 5 mg/kg, iv
- Assay type: ADME, organism-based
- Set-up: dose 5 mg/kg, route intravenous
- Details: in vivo
Observation Type: clearance

{"Test Smiles": "CC(C)(C)c1cnc(CSc2cnc(NC(=O)C3CCNCC3)s2)o1", "clearance": "55 mL/min/kg"}

Kindly consider the entry below.
Lookup result for CC(C)(C)c1cnc(CSc2cnc(N[C@H]3CC[C@H](N)CC3)s2)o1 ; measured clearance: 72 mL/min/kg
